Data origin: patent US20100098641A1

Assay: Half life of mutual prodrug in reaction buffer only (pH 7.4 tris/Mg2+/Zn2+)
Assay type: physicochemical
Conditions: reaction buffer without alkaline phosphatase; reaction buffer pH 7.4, no ALP; Table 2b
recorded-endpoint: half-life (h)
The answer is to be given in h; state only the numeric part.

*Q* Reported half-life, compound COc1ccc([C@H](Cc2cc[n+](Cc3ccc(C(O)CNCCCCCCOCCCCc4ccccc4)cc3OP(=O)(O)O)cc2)c2ccccc2)cc1OC1CCCC1 (stereo in doubt) [Example 37] : ____
*A* 6.42

---

Molecular target: alkaline phosphatase (Homo sapiens, UniProt P05187)
Sequence (P05187 23-506): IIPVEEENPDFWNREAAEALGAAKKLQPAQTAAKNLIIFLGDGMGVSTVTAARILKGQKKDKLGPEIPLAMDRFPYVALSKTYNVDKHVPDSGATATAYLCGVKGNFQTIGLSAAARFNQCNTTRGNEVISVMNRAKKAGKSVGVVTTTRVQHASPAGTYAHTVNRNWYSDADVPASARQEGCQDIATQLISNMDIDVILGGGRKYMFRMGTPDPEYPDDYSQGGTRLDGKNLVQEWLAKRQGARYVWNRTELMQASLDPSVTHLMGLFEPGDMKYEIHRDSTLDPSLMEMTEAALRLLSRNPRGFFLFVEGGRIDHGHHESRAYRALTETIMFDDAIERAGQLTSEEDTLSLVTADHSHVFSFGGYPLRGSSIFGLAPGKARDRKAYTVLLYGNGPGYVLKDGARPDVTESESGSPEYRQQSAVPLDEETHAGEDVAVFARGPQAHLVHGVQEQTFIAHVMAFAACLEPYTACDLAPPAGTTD
Experiment: Conversion of mutual prodrugs to salmeterol and AISTM drug after exposure to alkaline phosphatase in vitro (LCMS)
Type: in vitro ADME
Details: human, alkaline phosphatase (Sigma P-3895) in reaction buffer, pH 7.4, ALP Enzyme Conc. 0.443 mg/mL; Table 1b; first order kinetics assumed; read-out: Half Life t1/2
recorded-endpoint: half-life at 111.7 μM (h)
The answer is to be given in h; state only the numeric part.

*Q* Reported half-life at 111.7 μM, compound CC(C)Cn1ncc2cc(Oc3ccc(F)cc3F)c(C(=O)NCC[N+](C)(C)Cc3cc(C(O)CNCCCCCCOCCCCc4ccccc4)ccc3OP(=O)(O)O)cc21 (stereo not shown) [Example 29] : ____
*A* 2.36
